# system_under_test: T1, human TROP2-his protein (human, UniProt P09758 27-274)
# T1 construct: Biotin-labelled in the ELISAs, unlabelled analyte in Biacore; also called biotin-labeled human TROP2-his protein; biotin human Trop2-his
# T1 sequence: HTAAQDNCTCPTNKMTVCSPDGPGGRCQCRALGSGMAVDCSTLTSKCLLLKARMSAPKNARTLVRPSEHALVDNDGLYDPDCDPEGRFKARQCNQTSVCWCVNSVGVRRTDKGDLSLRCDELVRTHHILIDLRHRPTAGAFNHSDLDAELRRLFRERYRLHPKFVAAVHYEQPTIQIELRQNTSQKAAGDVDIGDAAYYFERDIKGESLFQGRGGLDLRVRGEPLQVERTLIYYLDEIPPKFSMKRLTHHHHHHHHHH
# experiment: SPR Biacore T200, supernatant antibody captured on anti-human IgG CM5 chip, 40 nM human TROP2-his
property_label: kon (M⁻¹ s⁻¹)
Express your answer in M⁻¹ s⁻¹, writing the number without its unit.

Ask: Find the recorded kon belonging to huA1E4F7D4-V15 (antibody, human IgG1, kappa, V domains shown, Positions of the X residues are given in the claims; Tested as cell supernatant) VH: QVQLVQSGAEVKKPGASVKVSCKASGYSFTTHWIHWVRQAPGQGLEWIGTIFPSNAYAVYNQKFRDRATMTRDRSISTAYIELSRLRSDDTAVYYCARASYFDYWGQGTTVTVSS VL: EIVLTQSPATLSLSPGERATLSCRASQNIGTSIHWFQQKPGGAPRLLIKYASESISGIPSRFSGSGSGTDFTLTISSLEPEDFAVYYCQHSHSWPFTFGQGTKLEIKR and report it.
Reply: 571000

Ask: Find the recorded kon belonging to huA1E4F7D4-V8 (antibody, human IgG1, kappa, V domains shown, Positions of the X residues are given in the claims; Tested as cell supernatant) VH: QVQLVQSGAEVKKPGASVKVSCKASGYTFTTHWIHWVRQAPGQGLEWIGTIFPSNAYAVYNQKFRDRATMTADRSISTAYIELSRLRSDDTAVYYCARASYFDYWGQGTTVTVSS VL: EIVLTQSPATLSLSPGERATLSCRASQNIGTSIHWFQQKPGQSPRLLIKYASESISGIPSRFSGSGSGTDFTLTISSLEPEDFAVYYCQHSHSWPFTFGQGTKLEIKR and report it.
Reply: 832000
